// values below are reported logD
- run-description: method code SF, from DOI: 10.1016/j.ejps.2012.10.019, PMID: 23131797
- condition: pH 10.5

Solved cases below.
1. Cc1ccc(-n2c(C)cc(=O)cc2C)cc1C | 2.95
2. CCCNC(=O)N1CCN(C(=O)NCCC)CC1 | 1.04
3. Cn1c(N)c(C(=O)CSc2nc3ccccc3nc2SCC(=O)c2c(N)n(C)c(=O)n(C)c2=O)c(=O)n(C)c1=O | 2.59
4. Cc1c(C(=O)N2CCN(S(=O)(=O)c3ccccc3)CC2)sc2nc3n(c(=O)c12)CCCCC3 | 4.13

stdin: Kindly indicate its recorded logD. Item: Cc1cc(C)n2nc(SCC(=O)NCCNC(=O)CSc3nc4nc(C)cc(C)n4n3)nc2n1
stdout: 0.82

###

- condition: pH 10.5
Classify on logD using low value (below 4), medium value (4 to below 5), high value (5 or more)

1) C/C(=C\c1ccco1)[C@H]1C(C#N)=C(N)Oc2n[nH]c(-c3ccccc3)c21 | medium value

stdin: Assign a bin to CC(=O)C1=C(C)NC(SCC(=O)c2ccc(Cl)cc2Cl)=C(C#N)[C@@H]1c1cccs1
stdout: high value

stdin: Assign a bin to COc1cccc(C2=NN=C3OC(N)=C(C#N)[C@H](c4cc(OC)c(OC)cc4Br)[C@@H]32)c1
stdout: medium value

stdin: Assign a bin to CCOC(=O)C1=C(C)N=c2s/c(=C\c3ccc(OC(C)=O)cc3)c(=O)n2C1c1cccs1 (stereo not drawn)
stdout: medium value

stdin: Assign a bin to CCOC(=O)C1CCN(C(=O)c2ccc(Cl)c(/N=C3/N[C@@H]4CS(=O)(=O)C[C@@H]4S3)c2)CC1
stdout: low value

stdin: Assign a bin to CCN(C(=O)[C@@H](C)OC(=O)c1cc(OC)c(OC)c(OC)c1)c1ccccc1
stdout: low value

stdin: Assign a bin to COC(=O)CC1=C(C(=O)OC)[C@]2(C(=O)Nc3ccccc32)C(C(=O)OCc2ccccc2)=C(N)O1
stdout: medium value

stdin: Assign a bin to CCOc1ccc(C2=NN=C3OC(N)=C(C#N)[C@@H](c4ccco4)[C@@H]32)c(OCC)c1
stdout: medium value

stdin: Assign a bin to OC[C@@H](O)Cn1c(SCCSc2nc3ccccc3n2C[C@H](O)CO)nc2ccccc21
stdout: low value

stdin: Assign a bin to Cc1cc2c(c(=O)o1)[C@@H](c1cccc(F)c1F)C(C#N)=C(N)O2
stdout: low value

stdin: Assign a bin to CN(C)/C=C/C(=O)c1ccc(C#Cc2ccccc2)cc1
stdout: medium value

###

- run-description: method code SF, from DOI: 10.1016/j.ejps.2012.10.019, PMID: 23131797
- condition: pH 5.0
Lab note: anything with logD below 4 is marked y; values at 4 or higher are marked n.

Observe how each entry below is paired with its result.
1) O=C1c2ccccc2C(=O)N1c1ccccc1C(F)(F)F | y
2) COc1ccc(S(=O)(=O)n2c(=O)n(S(=O)(=O)c3ccc(OC)cc3)c3ccccc32)cc1 | n
3) C#Cc1cccc(NC(=O)c2cc(C(=O)Nc3cccc(C#C)c3)cc(N3C(=O)c4ccccc4C3=O)c2)c1 | n
4) COc1ccc(C(=O)OCC(=O)NC2CCCCCCC2)cc1[N+](=O)[O-] | n
5) Cc1ccc(S(=O)(=O)N2CCCN(S(=O)(=O)c3ccc(C)cc3C)CC2)c(C)c1 | n

stdin: Dear colleague, could you confirm whether logD of Cc1ccc(-c2cc(C(F)F)n3ncc(C(=O)N4CCSCC4)c3n2)cc1 falls below 4? Thanks.
stdout: n

stdin: Dear colleague, could you confirm whether logD of Nn1c(SCC(=O)Nc2ccccc2-c2ccccc2)nnc1-c1ccc(OC(F)F)cc1 falls below 4? Thanks.
stdout: n

stdin: Dear colleague, could you confirm whether logD of COc1cccc(OCCn2c(=O)c3cc4c(=O)n(CCOc5cccc(OC)c5)c(=O)c4cc3c2=O)c1 falls below 4? Thanks.
stdout: n

stdin: Dear colleague, could you confirm whether logD of O=C(Nc1ccc(S(=O)(=O)c2ccc(NC(=O)c3cccs3)cc2)cc1)c1cccs1 falls below 4? Thanks.
stdout: n

stdin: Dear colleague, could you confirm whether logD of CCCCC(=O)Nc1ccc(F)c([N+](=O)[O-])c1 falls below 4? Thanks.
stdout: y

Measured values drawn from the SangsterLogP compilation for this set.
